- Test system: PRKACA (mouse)
- Condition Details: compound 10.0 µM; accession and sequence are those of the human protein
Each item that follows carries a reported inhibition.

Smiles Repr	Measured On	Quantity Unit	inhibition
Cc1cc(I)ccc1Nc1c(C(=O)NOCC2CC2)cc(F)c(F)c1F	PRKACA (mouse)	%	0
NC(=O)Nc1sc(-c2ccc(F)cc2)cc1C(N)=O	PRKACA (mouse)	%	4
CC(C)[C@H](CO)Nc1nc(Nc2cccc(Cl)c2)c2ncn(C(C)C)c2n1	PRKACA (mouse)	%	7
NC(=O)c1sc(-c2ccsc2)cc1N	PRKACA (mouse)	%	0
O=C(Nc1cc(C(F)(F)F)cc(C(F)(F)F)c1)c1cc(Cl)ccc1O	PRKACA (mouse)	%	0
O=c1cc(N2CCOCC2)nc2c3ccccc3ccn12	PRKACA (mouse)	%	0
O=c1[nH]nc(Sc2ncc([N+](=O)[O-])s2)n1-c1ccc2c(c1)OCCO2	PRKACA (mouse)	%	5
NC(=O)c1ccc(-c2nc(-c3ccccn3)c(-c3ccc4c(c3)OCO4)[nH]2)cc1	PRKACA (mouse)	%	0
O=C1c2ccccc2-c2n[nH]c3cccc1c23	PRKACA (mouse)	%	0
CC(=O)c1c(O)c(C)c(O)c(Cc2c(O)c3c(c(C(=O)/C=C/c4ccccc4)c2O)OC(C)(C)C=C3)c1O	PRKACA (mouse)	%	16
Fc1ccc(Cl)cc1-c1nc(Nc2ccncc2)c2nccnc2n1	PRKACA (mouse)	%	21
COc1nccc(-c2c(-c3ccc(F)cc3)ncn2[C@H]2CC[C@H](O)CC2)n1	PRKACA (mouse)	%	0
Cc1ccc(NC(=O)c2cccc(N(C)C)c2)cc1NC(=O)c1ccc(O)cc1	PRKACA (mouse)	%	7
CS(=O)(=O)CCNCc1nc(-c2ccc3ncnc(Nc4ccc(OCc5cccc(F)c5)c(Cl)c4)c3c2)cs1	PRKACA (mouse)	%	8
N#C/C(=C\c1ccc(O)c(O)c1)C(=O)NCc1ccccc1	PRKACA (mouse)	%	3
Oc1ccc(-c2nc(-c3ccc(F)cc3)c(-c3ccncc3)[nH]2)cc1	PRKACA (mouse)	%	11
CCN(CC)CCNC(=O)c1c(C)[nH]c(/C=C2\C(=O)Nc3ccc(F)cc32)c1C	PRKACA (mouse)	%	2
CCN(CC)CCCCN1c2ccccc2Oc2ccc(Cl)cc21	PRKACA (mouse)	%	0

* * *

Each item that follows carries a reported inhibition.
- System: PRKACA (mouse)
- Condition Details: compound 10.0 µM; accession and sequence are those of the human protein

Smiles Repr	Measured On	inhibition [%]
O=S(=O)(c1cccc2c(O)nccc12)N1CCCNCC1	PRKACA (mouse)	19
O=C1NC(=O)c2cc(Nc3ccc(F)cc3)c(Nc3ccc(F)cc3)cc21	PRKACA (mouse)	13
COc1ccc(C(=O)Nc2sc3c(c2C(N)=O)CCCC3)cc1OC	PRKACA (mouse)	12
CC(C)(C)n1nc(-c2ccc(Cl)cc2)c2c(N)ncnc21	PRKACA (mouse)	30

* * *

Each item that follows carries a reported inhibition.
- Measured On: FGFR1 (human)
- Condition Details: compound 10.0 µM

Compound	Measured On	Quantity Unit	inhibition
CC(C)N(CCC(=O)c1ccc2ccccc2c1)Cc1ccccc1	FGFR1 (human)	%	0
CC(=O)c1c(O)c(C)c(O)c(Cc2c(O)c3c(c(C(=O)/C=C/c4ccccc4)c2O)OC(C)(C)C=C3)c1O	FGFR1 (human)	%	45
O=C(NC(NC(=S)Nc1ccc(F)c([N+](=O)[O-])c1)C(Cl)(Cl)Cl)C(c1ccccc1)c1ccccc1 (centres undefined)	FGFR1 (human)	%	0
N#C/C(=C\c1ccc(O)c(O)c1)C(N)=S	FGFR1 (human)	%	11

* * *

Each item that follows carries a reported inhibition.
- Test system: PRKACA (mouse)
- Condition Details: compound 10.0 µM; accession and sequence are those of the human protein

Compound	Measured On	inhibition / %
Nc1ncnc2[nH]nc(Nc3ccc(F)cc3)c12	PRKACA (mouse)	9
O=C1Nc2ccc(I)cc2/C1=C/c1cc(Br)c(O)c(Br)c1	PRKACA (mouse)	9
CO[C@@H]1[C@H](N(C)C(=O)c2ccccc2)C[C@H]2O[C@]1(C)n1c3ccccc3c3c4c(c5c6ccccc6n2c5c31)C(=O)NC4	PRKACA (mouse)	63
O=C1NC(=O)c2c1c1c3ccccc3[nH]c1c1[nH]c3ccccc3c21	PRKACA (mouse)	27
O=c1cc(N2CCOCC2)oc2c(-c3ccccc3)cccc12	PRKACA (mouse)	0
CC1=C(O)C(=O)[C@@H]2OC2C1=O (stereo partly drawn)	PRKACA (mouse)	0
COc1cc2ncnc(Nc3ccc(F)c(Cl)c3)c2cc1OCCCN1CCOCC1	PRKACA (mouse)	1
C/C(O)=C(\C#N)C(=O)Nc1cc(Br)ccc1Br	PRKACA (mouse)	7
